tested_target: UniProtKB O43614
Sequence (O43614 whole entry): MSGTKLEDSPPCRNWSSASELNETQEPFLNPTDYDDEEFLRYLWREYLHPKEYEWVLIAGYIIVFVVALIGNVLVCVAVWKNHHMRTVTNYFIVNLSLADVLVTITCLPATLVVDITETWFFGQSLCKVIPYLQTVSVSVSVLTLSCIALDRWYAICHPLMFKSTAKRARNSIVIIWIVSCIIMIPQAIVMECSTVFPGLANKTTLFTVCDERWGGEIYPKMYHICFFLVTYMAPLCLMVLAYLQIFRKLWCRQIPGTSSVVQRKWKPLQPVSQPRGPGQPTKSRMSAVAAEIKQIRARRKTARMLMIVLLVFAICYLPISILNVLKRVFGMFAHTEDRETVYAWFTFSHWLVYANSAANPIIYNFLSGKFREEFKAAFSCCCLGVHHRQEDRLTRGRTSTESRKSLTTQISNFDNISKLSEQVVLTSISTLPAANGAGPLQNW
experiment_notes: IPOne (IP-1) assay in CHO cells expressing human OX2R
Type: cell-based
particulars: CHO, percentage of mean max effect of a reference compound at 1 uM (100% activity by comparison to Orexin A), human OX2R; read-out: Emax (%)
metric_name: Emax (%)

[
  {
    "molecule": "CC(C)OC(=O)N1[C@H](C)C[C@H](NS(=O)(=O)CF)[C@@H]1CO[C@H]1CC[C@@]2(c3ncc(Cl)cn3)C[C@H]2C1 (single isomer, unassigned) [Example 95]",
    "tested_target": "UniProtKB O43614",
    "Emax [%]": 101
  },
  {
    "molecule": "C[C@@H]1C[C@H](NS(C)(=O)=O)[C@H](CO[C@H]2CC[C@@]3(c4ncc(F)cn4)C[C@H]3C2)N1C(=O)OCCF [Example 62]",
    "tested_target": "UniProtKB O43614",
    "Emax [%]": 100
  },
  {
    "molecule": "CCS(=O)(=O)N[C@H]1C[C@@H](C)N(C(=O)OC)[C@H]1CO[C@H]1CC[C@@]2(c3ncc(F)cn3)C[C@H]2C1 [Example 36]",
    "tested_target": "UniProtKB O43614",
    "Emax [%]": 102
  }
]
